B1: ZNF207 (parent)
chain: CHICHKKLYTGPGLAIHCMQVHKE

Variants of: B1
Assay: protein stability index of a GFP-peptide fusion (GPS, HEK-293T) (PSI 1-6); higher = more stable;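 note: lentivirally expressed fusions sorted by FACS into six bins by GFP to DsRed ratio, PSI derived from sequencing read proportions per bin multiplied by bin number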
Conditions: c terminus: a fixed tail appended
Please provide measured protein stability index for the entries that follow.
Numbers only.

Recorded results for 2 variants are shown here.
Request: Bench note: what protein stability index did "P12G" show?
Response: 3.09

Request: Bench note: what protein stability index did "H2K" show?
Response: 2.91

Take each entry in turn and give its protein stability index.
1. C18K
2. L8Q

Response:
3.09
2.93
